- measured-target: CB2 receptor (Homo sapiens, UniProt P34972)
- Sequence (P34972 whole entry): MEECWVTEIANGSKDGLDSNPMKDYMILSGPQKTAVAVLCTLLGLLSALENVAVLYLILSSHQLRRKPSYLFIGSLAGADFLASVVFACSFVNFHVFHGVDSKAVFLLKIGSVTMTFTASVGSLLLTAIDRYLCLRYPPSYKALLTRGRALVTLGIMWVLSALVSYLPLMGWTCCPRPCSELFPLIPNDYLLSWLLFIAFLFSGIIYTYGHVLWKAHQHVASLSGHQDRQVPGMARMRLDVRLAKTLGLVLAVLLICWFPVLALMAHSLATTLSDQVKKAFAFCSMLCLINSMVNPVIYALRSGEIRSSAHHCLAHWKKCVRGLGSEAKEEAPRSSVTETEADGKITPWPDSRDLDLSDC
- assay-protocol: cAMP formation inhibition experiment through a cannabinoid receptor (forskolin stimulation), CB2
- Format: cell-based
- Set-up: expressed in transfected cells; host or cells: CHO cells
- condition-summary: inhibition of forskolin (4 μM)-stimulated cAMP formation, CHO cells expressing human CB2; read-out: Agonist activity (nM) CB2
measured-parameter: IC50
Answer format: value, then unit.

Prompt: // returns reported IC50 for input O=C(O)Cc1csc(NC(=O)c2cc3c(n(CC4CCCCC4)c2=O)CCCCCC3)n1
Response: 11 nM

Prompt: // returns reported IC50 for input O=C(O)CCc1csc(NC(=O)c2cc3c(n(CC4CCCCC4)c2=O)CCCCCC3)n1
Response: 15 nM

Prompt: // returns reported IC50 for input CCc1c(C)cc(C(=O)NC2(C(=O)O)CCCCC2)c(=O)n1Cc1ccc(F)cc1
Response: 24 nM

Prompt: // returns reported IC50 for input O=C(N[C@H](C(=O)O)c1ccccc1)c1cc2c(n(CC3CCCCC3)c1=O)CCCCCC2
Response: 5.7 nM
